Values were extracted from paper PMC3206016.

- target-under-test: SCRIB-34/4 tandem PDZ construct (Homo sapiens, UniProt Q14160)
- Construct: residues 997–1093, 1097–1193 and 997–1193 of human SCRIB (Uniprot acc.: Q14160-1); made in house; host or cells: E. coli BL21 DE3
- Sequence (Q14160 997-1193): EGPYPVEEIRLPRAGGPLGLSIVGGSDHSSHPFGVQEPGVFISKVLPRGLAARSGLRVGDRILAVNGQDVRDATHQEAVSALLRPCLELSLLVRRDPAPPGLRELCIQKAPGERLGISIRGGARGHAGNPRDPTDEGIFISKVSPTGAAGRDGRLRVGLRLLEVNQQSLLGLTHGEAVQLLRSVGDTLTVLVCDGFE
- protocol-details: SPR binding of MBP-PDZ analyte to immobilised biotinylated peptides
- conditions: SPR Biacore 2000, 25 C, steady state, 1:1 binding isotherm, MBP-PDZ 0-30 µM; to be considered with caution; read-out: tentative KD
Peptide text beside a SMILES is read from it. * marks the point of attachment. Biotin = O=C1N[C@H]2[C@H](CS[C@H]2CCCCC(=O)*)N1

compound: CC(C)C[C@H](NC(=O)[C@@H](NC(=O)[C@H](CCC(=O)O)NC(=O)[C@H](CCCCN)NC(=O)CNC(=O)[C@H](C)NC(=O)CNC(=O)[C@H](CO)NC(=O)CNC(=O)CCCC[C@@H]1SC[C@@H]2NC(=O)N[C@@H]21)[C@@H](C)O)C(=O)N[C@H](C(=O)O)C(C)C [NET1_05] (Biotin-GSGAGKETLV-OH)
uom: µM
Kd: 15
//
compound: CC(C)[C@H](NC(=O)[C@H](Cc1ccc(O)cc1)NC(=O)[C@H](CO)NC(=O)[C@H](CCC(=O)O)NC(=O)[C@H](CCCCN)NC(=O)CNC(=O)[C@H](C)NC(=O)CNC(=O)[C@H](CO)NC(=O)CNC(=O)CCCC[C@@H]1SC[C@@H]2NC(=O)N[C@@H]21)C(=O)O [ABC1_05] (Biotin-GSGAGKESYV-OH)
uom: µM
Kd: 10
//
compound: CC(C)[C@H](NC(=O)[C@@H](NC(=O)[C@@H](NC(=O)[C@H](CCC(=O)O)NC(=O)[C@H](CCCCN)NC(=O)CNC(=O)[C@H](C)NC(=O)CNC(=O)[C@H](CO)NC(=O)CNC(=O)CCCC[C@@H]1SC[C@@H]2NC(=O)N[C@@H]21)[C@@H](C)O)C(C)C)C(=O)O [MARCH3_05] (Biotin-GSGAGKETVV-OH)
uom: µM
Kd: 7

###

- target-under-test: SCRIB-34/4 tandem PDZ construct (Homo sapiens, UniProt Q14160)
- Construct: residues 997–1093, 1097–1193 and 997–1193 of human SCRIB (Uniprot acc.: Q14160-1); made in house; host or cells: E. coli BL21 DE3
- protocol-details: SPR binding of MBP-PDZ analyte to immobilised biotinylated peptides
- conditions: SPR Biacore 2000, 25 C, steady state, 1:1 binding isotherm, MBP-PDZ 0-30 µM; to be considered with caution; read-out: tentative KD
Ends that are not written are not given here.
# condition met = Kd below 4 µM (exclusive); condition not met = Kd at/above 4 µM

item-sequence: SVWLRKETRV [CYSLTR2_10]
qualitative-label: condition not met
--
item-sequence: VMRLQSETSV [VANG2_10]
qualitative-label: condition not met
--
item-sequence: QGRWDHETIV [TMEM215_10]
qualitative-label: condition not met
--
item-sequence: QDEKVKESYV [ABC1_10]
qualitative-label: condition not met
--
item-sequence: CNTVTVETVV [MAS_10]
qualitative-label: condition met
